Each item that follows carries a reported oxLDL uptake IC50 (nM), F293/hCD36.
# target.system: full-length human CD36-Flag overexpressed on stable F293 cells (human, UniProt P16671 2-472)
# Sequence (P16671 2-472): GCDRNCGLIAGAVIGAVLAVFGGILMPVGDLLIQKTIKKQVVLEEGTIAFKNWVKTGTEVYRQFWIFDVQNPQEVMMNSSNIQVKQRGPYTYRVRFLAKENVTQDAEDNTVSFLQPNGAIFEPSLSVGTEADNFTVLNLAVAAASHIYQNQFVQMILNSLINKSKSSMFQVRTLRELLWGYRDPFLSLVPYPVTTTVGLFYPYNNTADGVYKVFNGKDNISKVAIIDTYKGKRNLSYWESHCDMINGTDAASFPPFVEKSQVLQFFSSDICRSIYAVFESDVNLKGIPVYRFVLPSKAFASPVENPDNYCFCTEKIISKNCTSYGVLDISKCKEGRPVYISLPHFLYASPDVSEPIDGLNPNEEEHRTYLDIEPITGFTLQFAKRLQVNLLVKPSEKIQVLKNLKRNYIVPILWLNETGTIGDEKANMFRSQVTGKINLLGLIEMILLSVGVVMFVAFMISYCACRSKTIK
# experimental.details: cell-based or functional assay
Provide the reading as a plain figure in nM.

[[record]]
binder = "117_30DE (antibody, V domains shown, full-length IgG, human kappa) VH: EVQLVESGGGLVQPGGSLRLSCAASGFTIDSFGIHWVRQAPGKGLEWVAWIAPYGGETYYADSVKGRFTISADTSKNTAYLQMNSLRAEDTAVYYCARSFFGYFDYWGQGTLVTVSS VL: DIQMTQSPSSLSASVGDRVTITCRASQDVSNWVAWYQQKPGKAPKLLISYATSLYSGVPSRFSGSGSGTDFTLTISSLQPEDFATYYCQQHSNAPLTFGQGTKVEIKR"
measurement_name = "oxLDL uptake IC50 (nM), F293/hCD36"
quantitative_readout = 0.299


// moving on: another record for oxLDL uptake IC50 (nM), F293/hCD36
**Q:** Value lookup for oxLDL uptake IC50 (nM), F293/hCD36; key = 117_30DA (antibody, V domains shown, full-length IgG, human kappa) VH: EVQLVESGGGLVQPGGSLRLSCAASGFTIDAFGIHWVRQAPGKGLEWVAWIAPYGGYTYYADSVKGRFTISADTSKNTAYLQMNSLRAEDTAVYYCARSFFGYFDYWGQGTLVTVSS VL: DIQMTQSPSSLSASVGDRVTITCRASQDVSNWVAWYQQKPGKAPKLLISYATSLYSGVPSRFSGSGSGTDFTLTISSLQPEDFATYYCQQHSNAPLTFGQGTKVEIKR
**A:** 0.691

Source of measurements: patent US20250206837A1
